# System: Nicotinate-nucleotide adenylyltransferase NadD (Staphylococcus aureus N315)
# Assay details: inhibitors of S. aureus NadD, primary screen, biochemical, colorimetric, uHTS (AID 602399)
# Stated conditions: purified NadD enzyme, colorimetric absorbance read-out; at 20 µM; stronger effect = higher value
The whole screen tested about 360,000 compounds, of which about 2,800 (0.78%) were called active. The sample holds actives, similar compounds and a random draw of the others, so the mix is not that of the screen.
Test readout: inhibition (%)
Answers are plain numbers, in %.

Some molecules with known inhibition results, for comparison:
> print(dat)
                                   molecule                           target.of.assay  test.readout  number
1    O=C(O)CN(Cc1ccco1)S(=O)(=O)c1ccc(F)cc1  Nicotinate-nucleotide adenylyltransferase NadD (Staphylococcus aureus N315)    inhibition  -0.327
2  CSc1nnc2c(n1)OC(c1ccsc1)N(C(C)=O)c1ccccc1-2 (stereo unspecified)  Nicotinate-nucleotide adenylyltransferase NadD (Staphylococcus aureus N315)    inhibition   -0.91
3       CN(C)c1ccc(-n2cccc2/C=N/n2cnnc2)cc1  Nicotinate-nucleotide adenylyltransferase NadD (Staphylococcus aureus N315)    inhibition  -0.713

Count: 8. Required value per item: inhibition.
1. O=C(NC(Nc1nc2ccc([N+](=O)[O-])cc2s1)(C(F)(F)F)C(F)(F)F)c1ccccc1
2. O=C(Nc1nc2ccc([N+](=O)[O-])cc2s1)c1ccc(S(=O)(=O)N2CCCc3ccccc32)cc1
3. CC1C(=O)N(Cc2cn(Cc3ccco3)nn2)CCS(=O)(=O)N1Cc1ccc(-c2cccc(CO)c2)cc1 (stereo unspecified)
4. CC(C)c1nc(CNC(=O)CC2C(=O)NCCN2Cc2ccoc2)cs1 (stereo unspecified)
5. CC1=CC(=O)C=CC1(C)C(Cl)(Cl)Cl (stereo unspecified)
6. COc1cc(Cl)cc(C2NC(=O)NC(C)=C2C(=O)NCc2ccccc2)c1O (stereo unspecified)
7. COCCNC(=O)C(OC(=O)c1cccs1)c1ccc(F)cc1 (stereo unspecified)
8. Cc1cc(O)c(C(=O)/C=C/c2c(F)c(F)c(F)c(F)c2F)c(=O)o1

[reply]
[-2.21, 34.4, -3.23, 0.09, 4.28, -2.49, 2.74, 30]

// each molecule listed below needs its inhibition
1. COc1ccc(Cc2nnc(SCC(=O)N(c3ccccc3)C(C)C)n(N)c2=O)cc1
2. CC(=O)Nc1ccc(Nc2cc(C)nc(Nc3ccc(NC(C)=O)cc3)n2)cc1
3. Cc1ccc(C(=O)N/N=C\c2cc(Br)c(Br)o2)cn1

[reply]
1. -0.371
2. 32.4
3. -3.68

Look at each molecule and report its inhibition.
1. CC(C)CC1C(=O)N(Cc2cn(CC3CCCCC3)nn2)CCS(=O)(=O)N1Cc1ccc(-c2ccc(Cl)cc2)cc1 (stereo unspecified)
2. COc1cccc(/C=C/C(=O)Nc2ccc3c(c2)OCCO3)c1
3. CC(NC(=O)C(=O)N/N=C/c1ccc(Cl)cc1)c1ccccc1 (stereo unspecified)

[reply]
2.74
-5.58
-0.376

Please state inhibition for every molecule in the list that follows.
1. O=C(N/N=C/c1ccc(Cl)cc1)c1nc2ccc([N+](=O)[O-])cc2c(=O)[nH]1
2. CC(=O)NS(=O)(=O)c1ccc(N/C(N)=N/c2nc(C)cc(C)n2)cc1
3. COc1ccc(C(=O)NNc2cc(C)nc(NNC(=O)c3ccc(OC)cc3)n2)cc1

[reply]
1: 42.6; 2: 4.03; 3: 3.2

[ask] Return inhibition measured with Nicotinate-nucleotide adenylyltransferase NadD (Staphylococcus aureus N315) given this molecule: Cc1ccc(Cl)c(NC(=O)CN(C)CC(=O)Nc2ccc(F)c(F)c2F)c1Cl
[reply] 2.14
